# Test system: TK-10
# method.notes: NCI 60 cell line screen
# Type: cell-based
# condition.notes: Homo sapiens; TK-10, Renal Cancer; read-out: Percent growth
measured.parameter: activity at 10 µM (%)
Entry rule: numbers only, all in %.

Example results:
molecule: COc1ccc(S(=O)(=O)NCCCNc2nccc(-n3cnc4ccccc43)n2)cc1 [12m]
measurement.unit: %
activity at 10 µM: 103
//
molecule: O=S(=O)(NCCCNc1nccc(-n2cnc3ccccc32)n1)c1ccc(C(F)(F)F)cc1 [12l]
measurement.unit: %
activity at 10 µM: 81.5
//
molecule: O=S(=O)(NCCCNc1nccc(-n2cnc3ccccc32)n1)c1ccccc1 [12h]
measurement.unit: %
activity at 10 µM: 103
//
molecule: COc1ccc(S(=O)(=O)NCCNc2nccc(-n3cnc4ccccc43)n2)cc1 [12f]
measurement.unit: %
activity at 10 µM: 92.5

Which value of activity at 10 µM has been reported for O=S(=O)(NCCCNc1nccc(-n2cnc3ccccc32)n1)c1ccc(Cl)cc1 [12j] in the records?
104

---

# target: V600EBRAF (Homo sapiens, UniProt P15056, V600E)
# Construct: purchased Reaction Biology Corp. (Kinase HotSpot service)
# Sequence (P15056 whole entry V600E): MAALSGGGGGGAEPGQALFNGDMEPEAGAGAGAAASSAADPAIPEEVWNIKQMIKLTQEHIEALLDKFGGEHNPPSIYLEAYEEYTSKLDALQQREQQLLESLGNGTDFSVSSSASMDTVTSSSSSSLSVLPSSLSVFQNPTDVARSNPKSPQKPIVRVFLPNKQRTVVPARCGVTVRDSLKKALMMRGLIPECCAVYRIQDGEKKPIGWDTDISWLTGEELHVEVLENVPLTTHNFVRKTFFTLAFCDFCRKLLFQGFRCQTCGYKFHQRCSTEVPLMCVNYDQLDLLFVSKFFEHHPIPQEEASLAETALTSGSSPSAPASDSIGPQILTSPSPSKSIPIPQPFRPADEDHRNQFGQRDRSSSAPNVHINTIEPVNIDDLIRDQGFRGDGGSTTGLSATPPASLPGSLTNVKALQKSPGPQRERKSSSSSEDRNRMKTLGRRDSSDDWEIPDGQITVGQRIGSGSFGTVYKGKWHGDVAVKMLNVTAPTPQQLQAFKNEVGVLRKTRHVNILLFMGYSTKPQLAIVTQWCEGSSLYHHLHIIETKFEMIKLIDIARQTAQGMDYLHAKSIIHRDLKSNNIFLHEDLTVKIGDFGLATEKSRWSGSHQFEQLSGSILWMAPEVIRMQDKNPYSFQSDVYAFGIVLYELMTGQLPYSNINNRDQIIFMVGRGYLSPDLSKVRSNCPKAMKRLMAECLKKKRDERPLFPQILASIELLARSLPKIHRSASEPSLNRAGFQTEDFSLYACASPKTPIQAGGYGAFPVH
# method.notes: Reaction Biology kinase HotSpot enzyme assay
# Assay type: biochemical
# condition.notes: single dose 1 µM; 1 µM ATP; mean ± S.D. of two experiments
measured.parameter: % Inhibition at 1 µM over V600EBRAF (%)
API: value field is a number in %; no unit string.

Worked set:
compound: O=S(=O)(NCCNc1nccc(-n2cnc3ccccc32)n1)c1ccc(Br)cc1 [12d]
measurement.unit: %
% Inhibition at 1 µM over V600EBRAF: 69.28
--
compound: O=S(=O)(NCCNc1nccc(-n2cnc3ccccc32)n1)c1ccc(C(F)(F)F)cc1 [12e]
measurement.unit: %
% Inhibition at 1 µM over V600EBRAF: 98.24
--
compound: Cc1ccc(S(=O)(=O)NCCNc2nccc(-n3cnc4ccccc43)n2)cc1 [12g]
measurement.unit: %
% Inhibition at 1 µM over V600EBRAF: 82.11
--
compound: O=S(=O)(NCCCNc1nccc(-n2cnc3ccccc32)n1)c1ccc(F)cc1 [12i]
measurement.unit: %
% Inhibition at 1 µM over V600EBRAF: 97.81

For the compound shown here, O=S(=O)(NCCCNc1nccc(-n2cnc3ccccc32)n1)c1cccc2ccccc12 [12n] , give the reported % Inhibition at 1 µM over V600EBRAF.
41.27

So what does the record say about % Inhibition at 1 µM over V600EBRAF for O=S(=O)(NCCNc1nccc(-n2cnc3ccccc32)n1)c1ccccc1 [12a] ?
30.35

Given COc1ccc(S(=O)(=O)NCCNc2nccc(-n3cnc4ccccc43)n2)cc1 [12f] , state its recorded % Inhibition at 1 µM over V600EBRAF.
55.21

---

# Tested on: KM12
# method.notes: NCI 60 cell line screen
# Assay type: cell-based, human
# condition.notes: Homo sapiens; KM12, Colon Cancer; read-out: Percent growth
# Procedure: Anticancer profiling over a panel of 60 cancer cell lines was carried out at the National Cancer Institute (NCI), Bethesda, Maryland, USA, https://dtp.cancer.gov/discovery_development/nci-60/methodology.htm (Last visit 22 September 2021), using the standard procedure (detailed procedure is located in the Supplementary Information page 50 s). NCI standard procedure for 60 cell lines assay […] Three dose response parameters are calculated for each experimental agent. […] (TGI) is calculated from Ti = Tz.
measured.parameter: activity at 10 µM (%)
Provide the reading as a plain figure in %.

Below are worked cases with known answers.
compound: Cc1ccc(S(=O)(=O)NCCNc2nccc(-n3cnc4ccccc43)n2)cc1 [12g]
activity at 10 µM (%): 77.4

compound: O=S(=O)(NCCNc1nccc(-n2cnc3ccccc32)n1)c1ccc(C(F)(F)F)cc1 [12e]
activity at 10 µM (%): 58.7

compound: O=S(=O)(NCCNc1nccc(-n2cnc3ccccc32)n1)c1ccc(Cl)cc1 [12c]
activity at 10 µM (%): 97.1

compound: O=S(=O)(NCCCNc1nccc(-n2cnc3ccccc32)n1)c1cccc2ccccc12 [12n]
activity at 10 µM (%): 79.8

Turning now to a further record.
// lookup activity at 10 µM for O=S(=O)(NCCNc1nccc(-n2cnc3ccccc32)n1)c1ccc(Br)cc1 [12d]
85.4

Where these numbers come from: paper PMC8508980
